Experiment: NCI Yeast Anticancer Drug Screen. Data for the mec2-1 strain (AID 157)
Details: S. cerevisiae mec2-1 strain, at 5.0 µM (retest, dose inferred, filed as 0.5), hits give high values
Compounds without any hit were thinned out: in the full panel of roughly 79,000, 15% have a hit.
measure: growth inhibition (%)
Numbers only, in %.

In the examples that follow, each entry is paired with its recorded growth inhibition.
CCc1c(C)[nH]c2c([N+](=O)[O-])cccc12    8
C#CCOC(=O)Nc1nc2ccc(SC#N)cc2s1    -5
ClCc1ccc2oc3ccccc3c2c1    1

Give one value of growth inhibition per listed compound.
1. CC(COC(=O)C(c1ccccc1)C1C=CCCC1)CN1CCCC1 (centres undefined)
2. O=[N+]([O-])c1ccc2c(c1)CCc1ccccc1-2
3. CC12OC1C(=O)c1ccccc1C2=O (centres undefined)
4. c1ccc2c(Nc3ccc(Oc4ccc(Nc5c6ccccc6nc6ccccc56)cc4)cc3)c3ccccc3nc2c1
5. OC(c1ccccc1)(C(F)(F)F)C(O)(c1ccccc1)C(F)(F)F (centres undefined)
6. CCN(CC)CCCNc1nc(NCCCN(CC)CC)c2nc(-c3ccccc3)c(-c3ccccc3)nc2n1

Result:
18
-18
15
8
57
2

Give one value of growth inhibition per listed compound.
1. COC(=O)CCC(NC(=S)N/N=C(\C)c1cnc2ccccc2n1)C(=O)OC (centres undefined)
2. OCC1CCc2[nH]c3ccccc3c2C1 (centres undefined)
3. CCC(C)SSc1ccccc1C(=O)Nc1ccc(Cl)cc1 (centres undefined)

Result:
1. 1
2. -53
3. 14

###

Could you please report measured growth inhibition for the items listed next?
Test: NCI Yeast Anticancer Drug Screen. Data for the sgs1 mgt1 strain (AID 161);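 also: 0% = growth of cultures given vehicle only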
Conditions: S. cerevisiae sgs1 mgt1 strain, at 50.0 µM (retest, dose inferred, filed as 5.0), hits give high values
Compounds without any hit were thinned out: in the full panel of roughly 79,000, 15% have a hit.
One number for each entry, in %.

Give one value of growth inhibition per listed compound.
1. OCCC(CCN1CCOCC1)(c1ccccc1)C1(O)CCCC1 (stereo unspecified)
2. [N-]=[N+]=CC(=O)C1(c2ccccc2)OC1c1ccccc1 (stereo unspecified)
3. CC(C)C[C@H](NC(=O)[C@H](Cc1ccccc1)NC(=O)c1cnccn1)B(O)O
4. Oc1c(N(Cc2ccccc2)Cc2ccccc2)ccc2cccnc12
5. CCN1C(Cl)=NS(=O)(=O)c2ccccc21
6. Cn1c(=O)c2c(ncn2-c2ccncc2)n(C)c1=O

Result:
[3, -4, 78, 97, 39, -7]

Give one value of growth inhibition per listed compound.
1. O=C1c2ccccc2C(=O)N1CCn1ccc(NC(c2ccccc2)(c2ccccc2)c2ccccc2)nc1=O
2. CCCCCCCCCCCCCCC(C(=O)O)S(=O)(=O)O (stereo unspecified)
3. Clc1ccc(SSN2CCCCC2)cc1
4. CCN(CC)CCOc1ccc(C(=C2CCCCC2)c2ccc(OCCN(CC)CC)cc2)cc1
5. CC#CC(=O)Nc1ccccc1CC(c1c[nH]c2ccccc12)c1c[nH]c2ccccc12
6. COc1ccc(C(c2ccc(OC)cc2)c2ccccc2C(=O)O)cc1
7. O=C(O)c1ccc(C(O)(c2ccccc2)c2ccccc2)cc1
8. O=C1c2cc(O)ccc2C(=O)c2c1ccc(O)c2O

Result:
1. 50
2. 69
3. 82
4. 31
5. 40
6. 48
7. 90
8. 98

Give one value of growth inhibition per listed compound.
1. O=C(c1ccc(Br)cc1)C1OC12C(=O)Nc1ccccc12 (stereo unspecified)
2. Cc1ccc(SSCCCCS(=O)O)cc1

Result:
1: 100; 2: 91
